As a worked illustration, we turn to IC50 data collected for Nitric oxide synthase, inducible (Homo sapiens).
assay.endpoint: IC50

• CNc1cc(C)cc(C)n1 = 86 µM
• CC(=N)NCCSCC[C@H](N)C(=O)O = 0.07 µM

* * *

As a worked illustration, we turn to IC50 data collected for Nitric oxide synthase 1 (Homo sapiens, UniProt P29475).
assay.endpoint: IC50 (µM)

• CCOC(=O)N1CCC(Nc2cc(OCC)ccn2)CC1 = 96
• Cc1cc(C)nc(N)c1 = 0.098
• COc1ccnc(NC2CCN(C(=O)c3ccc(Cl)cc3)CC2)c1 = 7.8

* * *

Biological target: Nitric oxide synthase 3 (Homo sapiens)
Experiment: Percentage inhibition of human endothelial nitric oxide synthase (eNOS) at 100 uM
Reported values of inhibition for individual entries
assay.endpoint: inhibition

• CCOC(=O)N1CCC(Nc2cc(OCC)ccn2)CC1 = < 20%
• CCOC(=O)N1CCC(Nc2ccccn2)CC1 = < 20%
• COc1ccnc(NC2CCN(C(=O)c3ccc(C#N)cc3)CC2)c1 = < 20%
• N#Cc1ccc(C(=O)N2CCC3(CC2)N=C(N)c2c(F)ccc(F)c2N3)cn1 = < 20%
